Values were extracted from patent US7501541B2.

- measured-on: human orexin-2 (hOX2) receptors (Homo sapiens, UniProt O43614)
- Construct: expressed in transfected cells
- Sequence (O43614 1-444): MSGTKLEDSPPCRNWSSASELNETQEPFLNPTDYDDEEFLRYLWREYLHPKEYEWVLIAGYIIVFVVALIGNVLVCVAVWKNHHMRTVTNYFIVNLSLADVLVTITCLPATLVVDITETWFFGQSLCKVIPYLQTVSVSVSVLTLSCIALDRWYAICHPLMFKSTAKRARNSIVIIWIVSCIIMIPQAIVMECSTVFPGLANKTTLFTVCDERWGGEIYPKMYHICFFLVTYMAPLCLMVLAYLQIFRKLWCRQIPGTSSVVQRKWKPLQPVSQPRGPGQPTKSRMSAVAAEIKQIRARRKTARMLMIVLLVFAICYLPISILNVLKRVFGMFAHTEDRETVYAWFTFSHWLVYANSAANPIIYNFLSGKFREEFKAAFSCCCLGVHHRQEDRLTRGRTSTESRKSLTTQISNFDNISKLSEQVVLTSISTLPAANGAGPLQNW
- test-name: Intracellular Ca2+ mobilization assay (FLIPR), CHO(dHFr-) cells expressing hOX2
- Type: cell-based
- run-parameters: antagonism of orexin-A at EC80; Kb=IC50/(1+[A]/EC50); CHO(dHFr-)-OX2R cells
observation-type: Kb (µM)
Numbers only; they are read as µM.

Short answer for COc1ccc(N(CCc2ccc(C(F)(F)F)cc2)C(=O)C(C(=O)N(C)Cc2ccccc2)c2ccccc2)cc1OC (stereo not shown) [Example 15] : Kb was 0.0428

Short answer for COc1ccc(N(CCc2ccc(C(F)(F)F)cc2)C(=O)C(C(N)=O)c2ccccc2)cc1OC (stereo not shown) [Example 2] : Kb was 0.0172

Short answer for COc1ccc(N(CCc2ccc(C(F)(F)F)cc2)C(=O)C(C(=O)NCc2ccc(C)cc2)c2ccccc2)cc1OC (stereo not shown) [Example 13] : Kb was 0.0968

Short answer for COc1ccc(N(CCc2ccc(C(F)(F)F)cc2)C(=O)C(C(=O)Nc2cccnc2)c2ccccc2)cc1OC (stereo not shown) [Example 22] : Kb was 0.0838
